Quick reference for self-cleavage among some variants
B1: CPEB3 Ribozyme (parent)
chain: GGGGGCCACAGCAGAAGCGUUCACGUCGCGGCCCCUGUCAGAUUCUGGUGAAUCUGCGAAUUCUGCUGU

- Variants of: B1
- assay_details: self-cleavage, relative activity (ratio to wild type); higher = more cleavage; co-transcriptional
measurement_kind: self-cleavage

mutation: U43A G58A
experimental_value: 0.929

mutation: A40U U69C
experimental_value: 1

mutation: G17C C27G
experimental_value: 0.156
